Measured pKd accompanies every entry in the list below.
Target: T1, PDZD7_3, Q9H5P4
T1 sequence (Q9H5P4 857-944, limits assumed, looked up): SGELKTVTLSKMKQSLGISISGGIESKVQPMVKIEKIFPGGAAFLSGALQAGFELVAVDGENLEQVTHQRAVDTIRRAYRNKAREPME
Experiment: holdup assay
Set-up: key: below the threshold = too weak to quantify, mostly under pKd 3.1 to 4
Details: plain residues with an end cap or a label only (N-terminal biotin on a linker: ado-ado)
quantityName: pKd

| binder | resultNumber |
| --- | --- |
| TETASVCTKV [SLC23A1, Q9UHI7] | 4.63 |
| GFGEERESIL [KIDINS220, Q9ULH0] | 5.03 |
| FVHPILQSAV [PRKCA, P17252] | 4.55 |

Origin of measurements: paper PMC9482650
